// provenance: ChEMBL document CHEMBL1201862

target: Cytochrome P450 2C19 (Homo sapiens, UniProt P33261); experiment: Cytochrome panel assay with activity outcomes. Panel member name: p450-cyp2c19 Compounds with AC50 equal or less than 10 uM are considered active; type: functional; settings: read-out: AC50
Sequence (P33261 whole entry): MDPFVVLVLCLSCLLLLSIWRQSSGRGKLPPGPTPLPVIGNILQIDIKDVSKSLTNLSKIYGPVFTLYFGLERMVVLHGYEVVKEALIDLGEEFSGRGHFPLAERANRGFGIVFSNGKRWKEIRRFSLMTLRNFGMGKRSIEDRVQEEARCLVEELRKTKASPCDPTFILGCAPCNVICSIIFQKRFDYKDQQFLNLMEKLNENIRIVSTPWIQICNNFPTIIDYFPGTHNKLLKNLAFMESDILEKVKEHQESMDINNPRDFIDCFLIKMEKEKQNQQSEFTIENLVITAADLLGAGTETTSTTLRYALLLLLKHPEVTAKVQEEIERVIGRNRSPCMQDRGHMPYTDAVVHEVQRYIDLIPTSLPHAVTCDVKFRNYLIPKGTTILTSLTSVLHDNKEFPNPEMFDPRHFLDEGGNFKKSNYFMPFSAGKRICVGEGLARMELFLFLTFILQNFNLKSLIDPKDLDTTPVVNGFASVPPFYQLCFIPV
Active and inactive are the calls of the source.
endpoint label: AC50

Example compounds with recorded AC50:
| compound | AC50 |
| --- | --- |
| COc1cc(/C=N/NC(=O)CN2CC(c3ccccc3)CC2=O)ccc1OC(=O)N(C)C (stereo not given) | 22.4 µM (inconclusive) |
| CNc1ncnc2ccc(-c3ccccc3OC)cc12 | 31.6 µM (inconclusive) |
| CCC(CC)c1nnc(NC(=O)c2ccc3ccccc3n2)s1 | 28.2 µM (active) |
| O=[N+]([O-])c1ccc(N2CCC(=NOCc3ccc(Cl)cc3)CC2)cc1 | 4.47 µM (inconclusive) |
| COc1cc(/C=C(\C#N)c2nc3c(s2)CC(C)CC3)ccc1O (stereo not given) | 39.8 µM (inconclusive) |
| COC(=O)[C@@]1(Cc2ccc(F)cc2)[C@H]2c3cc(C(=O)N(C)C)n(CCSCCO)c3C[C@H]2CN1C(=O)c1ccccc1 | 39.8 µM (inconclusive) |

// batch mode: one AC50 value per listed entry
1. Cc1ccc(/C=N/NC(=O)c2cccs2)cc1[N+](=O)[O-]
2. C/C(CC(=O)Nc1ccccn1)=N\NC(=O)C(=O)Nc1cccc(Cl)c1C
3. O=C(COc1ccc2ccccc2c1)NNC(=O)Cc1cccc2ccccc12
4. CC(C)C(C(=O)NCC1CCCO1)N(Cc1ccco1)C(=O)CNS(=O)(=O)c1ccc(F)cc1 (stereo not given)

1. 31.6 µM (inconclusive)
2. 11.2 µM (inconclusive)
3. 0.398 µM (inconclusive)
4. 11.2 µM (inconclusive)

====

For each entry below, report its IC50 value.
Biological target: Ubiquitin-conjugating enzyme E2 N (Homo sapiens, UniProt P61088)
Sequence (P61088 whole entry): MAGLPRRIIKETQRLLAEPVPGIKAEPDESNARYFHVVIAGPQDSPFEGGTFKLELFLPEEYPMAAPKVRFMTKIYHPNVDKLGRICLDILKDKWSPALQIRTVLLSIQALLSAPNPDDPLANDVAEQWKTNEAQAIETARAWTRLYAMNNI
Format: functional
Active and inactive are the calls of the source.

Sample answers from the record:
| compound | observed value |
| --- | --- |
| O=C1c2cccc3cccc(c23)C(=O)N1CC1CCN(CC(O)COCc2ccc3c(c2)OCO3)CC1 (stereo unspecified) | 3.25 µM (active) |
| CCN1CCN(Cc2ccc(NC(=O)c3ccc(C)c(/C=C/c4cnc(Nc5cc(N6CCNCC6)nc(C)n5)cn4)c3)cc2C(F)(F)F)CC1 | 11.1 µM (active) |
| Cc1ccc(N(C(=O)c2snc(C(N)=O)c2N)C(C(=O)NC2CCCC2)c2ccco2)cc1 (stereo unspecified) | 8.18 µM (active) |

For each entry beneath this line, provide reported IC50.
1. O=C(Nc1ccc(F)c(Cl)c1)C1CCN(c2ncnc3c2nc2n3CCCCC2)CC1
2. CN1CCN(C(=O)C2CCN(c3ncnc4c3nc3n4CCCCC3)CC2)CC1
3. CCC(C(=O)NC1CCCC1)N(C(=O)c1snc(C(N)=O)c1N)c1ccc2c(c1)OCCO2 (stereo unspecified)

1. 8.53 µM (active)
2. 3.51 µM (active)
3. 7.69 µM (active)
